test: Rat hepatocyte stability experiment; assay type: in vitro ADME; settings: rat hepatocytes, 5 min, average value
ATTRIBUTE_MEASURED: Residual percentage (%) 5 min

Take a look at these entries with their results.
> print(dat)
                                   compound             attribute.measured  measured.result
1  C[C@@H](Nc1cnc2[nH]nc(/C=C/c3ccccn3)c2c1)c1cc(F)cc(F)c1  Residual percentage (%) 5 min           27.83%
2  C[C@]12CC[C@H]3[C@@H](CCC4=CC(=O)CC[C@@]43C)[C@@H]1CC[C@@H]2O [Testosterone, reference compound]  Residual percentage (%) 5 min           21.21%
3  C[C@@H](Nc1ccc2[nH]nc(/C=C/c3ccccn3)c2c1)c1cc(F)cc(F)c1  Residual percentage (%) 5 min           71.83%

Here's the next entry for you.
Asked: Sample "O=S(=O)(Nc1ccc2[nH]nc(/C=C/c3ccccn3)c2c1)c1cc(F)cc(F)c1" — what was its Residual percentage (%) 5 min?
Given back: 92.73%

* * *

test: Rat hepatocyte stability experiment; type: in vitro ADME; details: rat, rat hepatocytes (suspension)
Reported half-life at 1 μM is given for each of the following compounds.
Give just the number in min; leave the unit off.

Example entries and their recorded answers appear below.
> print(dat)
                                   compound  attribute.measured  measured.result
1  C[C@]12CC[C@H]3[C@@H](CCC4=CC(=O)CC[C@@]43C)[C@@H]1CC[C@@H]2O [Testosterone, reference compound]   half-life at 1 μM             2.23
2  O=S(=O)(Nc1ccc2[nH]nc(/C=C/c3ccccn3)c2c1)c1cc(F)cc(F)c1   half-life at 1 μM              154
3  C[C@@H](Nc1cnc2[nH]nc(/C=C/c3ccccn3)c2c1)c1cc(F)cc(F)c1   half-life at 1 μM             2.71

Kindly consider the entry below.
Asked: # half-life at 1 μM lookup, item "C[C@@H](Nc1ccc2[nH]nc(/C=C/c3ccccn3)c2c1)c1cc(F)cc(F)c1"
Given back: 11.1

* * *

molecular target: BaF3-ETV6-NTRK3 (Homo sapiens); construct: fused on or other part: P41212 (Transcription factor ETV6); test: Cell proliferation inhibition (CCK-8), BaF3-ETV6-NTRK3 stable strain; conditions: BaF3-ETV6-NTRK3, 72 hours
Sequence (Q16288 whole entry, the tested form may be a part): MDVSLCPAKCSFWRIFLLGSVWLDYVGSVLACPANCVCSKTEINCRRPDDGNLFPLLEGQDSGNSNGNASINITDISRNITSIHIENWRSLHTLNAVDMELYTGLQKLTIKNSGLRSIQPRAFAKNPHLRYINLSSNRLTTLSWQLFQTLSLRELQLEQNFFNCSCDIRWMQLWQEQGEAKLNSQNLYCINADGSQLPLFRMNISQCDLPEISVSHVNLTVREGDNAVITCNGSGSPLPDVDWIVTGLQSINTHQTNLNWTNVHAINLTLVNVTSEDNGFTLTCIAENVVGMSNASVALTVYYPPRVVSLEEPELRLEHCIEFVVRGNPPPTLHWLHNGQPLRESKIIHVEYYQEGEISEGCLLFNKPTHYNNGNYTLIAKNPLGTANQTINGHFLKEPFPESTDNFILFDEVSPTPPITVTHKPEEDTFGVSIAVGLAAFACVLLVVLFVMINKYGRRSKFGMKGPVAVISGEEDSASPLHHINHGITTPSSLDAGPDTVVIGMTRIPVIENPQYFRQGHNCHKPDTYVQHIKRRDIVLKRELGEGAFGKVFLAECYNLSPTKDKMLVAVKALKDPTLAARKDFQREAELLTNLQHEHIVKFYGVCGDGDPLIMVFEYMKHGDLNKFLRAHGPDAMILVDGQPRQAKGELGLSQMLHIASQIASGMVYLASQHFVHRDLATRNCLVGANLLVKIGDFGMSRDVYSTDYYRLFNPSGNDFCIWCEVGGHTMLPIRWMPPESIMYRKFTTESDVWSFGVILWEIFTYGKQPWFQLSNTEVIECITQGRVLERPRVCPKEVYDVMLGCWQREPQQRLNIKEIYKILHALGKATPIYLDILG
ATTRIBUTE_MEASURED: pIC50
In simple prose, pIC50 is minus the logarithm base ten of a concentration in moles per litre.

Here are 3 compounds together with their reported answers.
> print(dat)
                           structure.smiles  measured.result
1  CC(C)OCCn1cc(/C=C/c2n[nH]c3ccc(NS(=O)(=O)c4cc(F)cc(F)c4)cc23)cn1             7.32
2  CNC(=O)Cn1cc(/C=C/c2n[nH]c3ccc(NS(=O)(=O)c4cc(F)cc(F)c4)cc23)cn1             6.46
3  Fc1cc(Cl)cc(Cc2ccc3[nH]nc(/C=C/c4ccccn4)c3c2)c1             6.82

Asked: Requested read-out: pIC50. Entry: "Fc1cccc(Cc2ccc3[nH]nc(/C=C/c4ccccn4)c3c2)c1"
Given back: 6.87

Asked: Given the compound "C[C@@H](Nc1ccc2[nH]nc(/C=C/c3cccnc3)c2c1)c1cc(F)cc(F)c1" , what is its reported pIC50?
Given back: 8.11

Asked: Which measured pIC50 value corresponds to "CC(=O)n1cc(/C=C/c2n[nH]c3ccc(NS(=O)(=O)c4cc(F)cc(F)c4)cc23)cn1" ?
Given back: 6.90

Asked: I would be grateful if you could share the reported pIC50 for "O=C(/C=C/c1n[nH]c2ccc(NCc3cc(F)cc(F)c3)cc12)N1CCOCC1" .
Given back: 7.38

Asked: Which pIC50 is listed for "CN(C)C(=O)/C=C/c1n[nH]c2ccc(NCc3cc(F)cc(F)c3)cc12" ?
Given back: 7.65
